tested on: J2 IgG WT, PDB:9OJV_1+PDB:9OJV_2; assay: BLI steady state; conditions: 100 mM KCl; kinetic Kd 1400 ± 800 nM; BLI: 25 mM Tris-HCl pH 7.5, 100-400 mM KCl (per row), 2 mM MgCl2, 25 C, IgG immobilized on Protein A; FP: 25 mM Tris-HCl pH 7.5, 100 mM KCl, 2 mM MgCl2, 21 C
assayMetric: Kd (nM)
Report as a plain number; the unit nM is understood.

Consider GUUGUAAAGAAGGU / ACCUUCUUUACAAC [14-bp dsRNA] . Its measured Kd is 2100
